System: MCF7 breast
measurement description: NCI-60 one-dose screen, 48 h
run parameters: 10 µM unless noted
Experimental: Growth inhibition of the MCF7 human tumor cell line is measured as a screen for anti-cancer activity. Cells are grown in 96 well plates and exposed to the test compound for 48 hours. Compounds are tested at a single concentration, which is 10^-5 M for most compounds. The reported endpoint is percent growth (GI% or GIPRCNT), where numbers from 0 - 100% represent growth inhibition, and numbers from -100% - 0 represent cell death. For example, a value of 40 represents 60% growth inhibition. […]
About 83,000 compounds went through this panel and 20% of them were active in at least one assay; those are over-represented in the sample as a whole. The source made the active and inactive calls. Rule for the calls: active = growth percent below 10; inactive = the rest.
Respond only with the outcome that fits, drawn from active, inactive

Test call, this compound: NS(=O)(=O)c1ccc(CCN2C(=O)c3cc(Cl)c(Cl)cc3C2=O)cc1
inactive

Test call, this compound: C=C1C(=O)O[C@H]2[C@H]1CC/C(COC(=O)NCc1c[nH]c3ccc(Br)cc13)=C\CC[C@@]1(C)O[C@@H]21
inactive

Test call, this compound: O=C(CCN1CCCC1)Nc1ccc2c(NCCc3ccccc3)c3ccccc3nc2c1
active

Test call, this compound: O=C(Nc1ccc(-c2ccc3c(c2)NC(=O)/C3=C\c2ccc[nH]2)cc1)NC1CC1
inactive

Test call, this compound: COCc1cnccc1NC1CCCCCC1
inactive

Test call, this compound: O=c1ccc(-c2nc(N3CCOCC3)c3ccccc3n2)c[nH]1
inactive

Test call, this compound: COc1cc(/C=N/NC(=O)c2cnn3c2NC(c2ccccc2)C3)ccc1Oc1ccccc1 (stereo not given)
active

Test call, this compound: CCNC(=O)Oc1ccc(/C(=C(\C)c2ccccc2)c2ccc(OCCN(CC)CC)cc2)cc1
inactive

Test call, this compound: N#C/C(=C\c1cccc(C#N)c1)c1ccccc1
inactive

Test call, this compound: O=C(C1CCC1)N1N=C(c2ccc(-n3ccc(C(F)(F)F)n3)cc2)CC1c1ccc[nH]1 (stereo not given)
inactive

Test call, this compound: CCN(CC)CCn1c(=O)c2cc(OC)c(OC)cc2c2ccc3cc4c(cc3c21)OCO4
inactive

Test call, this compound: O=C(NNc1nc2c(F)cccc2n2cccc12)c1cnccn1
inactive

Test call, this compound: O=S(=O)(NCCNc1nccc(-c2c(-c3cccc(F)c3)nc3sccn23)n1)c1ccccc1
inactive

Test call, this compound: O=C1c2ccc3c4c(ccc(c24)C(=O)N1CCCNCc1ccccc1)C(=O)N(CCCNCc1ccccc1)C3=O
active

Test call, this compound: COC(=O)C1=C(C(=O)ON)C2C=CC1(C(Cc1ccccc1)Nc1ccccc1)O2 (stereo not given)
inactive

Test call, this compound: Nc1c(C(=O)Nc2cccc3cnccc23)sc2nc3c(cc12)CN(Cc1ccccc1)CC3
inactive

Test call, this compound: COc1cccc(C(=O)NNc2nc(Cl)nc(N3CCN(C(c4ccccc4)c4ccccc4)CC3)n2)c1
inactive

Test call, this compound: O=C1Nc2cc(-c3ccc(NC(=O)C4CC4)cc3)ccc2/C1=C/c1ccc[nH]1
inactive

Test call, this compound: COc1cc(/C=C\c2cc(OC)c(OC)c(OC)c2)cc(NC(=O)/C=C/c2cc(OC)c(OC)c(OC)c2)c1OC
inactive

Test call, this compound: COc1ccc2c(c1)oc1c(C)c3c(c(C)c12)C(=O)N(CCN1CCOCC1)C3=O
inactive
